Test system: alkaline phosphatase, intestinal [Bos taurus]
test-method-notes: bovine intestinal alkaline phosphatase inhibitors, primary screen, selectivity assay for TNAP inhibitor project, biochemical, bovine IAP, CDP-star luminescence (AID 1019)
measurement-conditions: purified bovine IAP, 30 min, at 20 µM, stronger effect = higher value
Screen size: about 190,000 compounds; fewer than 10 were called active. A selection follows.
// values below are reported inhibition
observed-property: inhibition (%)

[
  {
    "compound": "Cc1nc2scc(-c3cccs3)c2c(=O)n1N",
    "assay-system": "alkaline phosphatase, intestinal [Bos taurus]",
    "observed-property": "inhibition",
    "numeric-readout": -37.2
  },
  {
    "compound": "Cc1nc2ccccn2c1C(=O)NN=C1CCN(C)CC1",
    "assay-system": "alkaline phosphatase, intestinal [Bos taurus]",
    "observed-property": "inhibition",
    "numeric-readout": -6.8
  },
  {
    "compound": "CC(NC(=O)CCC(=O)N1CCN(S(=O)(=O)c2ccc(Cl)cc2)CC1)c1ccccc1 (centres undefined)",
    "assay-system": "alkaline phosphatase, intestinal [Bos taurus]",
    "observed-property": "inhibition",
    "numeric-readout": -56.8
  },
  {
    "compound": "Cc1ccc(C)c(Cn2nnc3c(=O)[nH]c(C(=O)Nc4ccc(F)cc4)nc32)c1",
    "assay-system": "alkaline phosphatase, intestinal [Bos taurus]",
    "observed-property": "inhibition",
    "numeric-readout": 2.7
  },
  {
    "compound": "CCCCn1nc(C(=O)OCC(=O)Nc2sccc2C(N)=O)c2ccccc2c1=O",
    "assay-system": "alkaline phosphatase, intestinal [Bos taurus]",
    "observed-property": "inhibition",
    "numeric-readout": -0.9
  },
  {
    "compound": "CC(C)[C@@H]1NC(=O)c2cc([N+](=O)[O-])cc(I)c2NCCC[C@@H](C(=O)NC(CC(=O)O)C(N)=O)NC(=O)[C@H](CO)NC1=O (some centres undefined)",
    "assay-system": "alkaline phosphatase, intestinal [Bos taurus]",
    "observed-property": "inhibition",
    "numeric-readout": 6.3
  },
  {
    "compound": "CCc1ccc(C(=O)OCC(=O)Nc2cccc(S(=O)(=O)NC3=NCCCCC3)c2)cc1",
    "assay-system": "alkaline phosphatase, intestinal [Bos taurus]",
    "observed-property": "inhibition",
    "numeric-readout": 7.2
  },
  {
    "compound": "O=C(NCc1cccs1)c1cc(-c2ccccn2)nc2ccc(Br)cc12",
    "assay-system": "alkaline phosphatase, intestinal [Bos taurus]",
    "observed-property": "inhibition",
    "numeric-readout": -9.8
  },
  {
    "compound": "COc1ccc(C(=O)NNC(=O)c2cc(C)[nH]n2)cc1",
    "assay-system": "alkaline phosphatase, intestinal [Bos taurus]",
    "observed-property": "inhibition",
    "numeric-readout": -38.6
  },
  {
    "compound": "O=C(c1cc(Cl)cc(Cl)c1)N1CCC(=O)N(C(COCc2ccccc2)Cc2ccccc2)CC1 (centres undefined)",
    "assay-system": "alkaline phosphatase, intestinal [Bos taurus]",
    "observed-property": "inhibition",
    "numeric-readout": -2.4
  },
  {
    "compound": "CC(OC(=O)CCc1nc(=O)c2ccccc2n1C)C(=O)NCc1ccc2c(c1)OCO2 (centres undefined)",
    "assay-system": "alkaline phosphatase, intestinal [Bos taurus]",
    "observed-property": "inhibition",
    "numeric-readout": -9.4
  },
  {
    "compound": "Cc1ccc2nc(C)cc(N/N=C/c3ccc(F)cc3)c2c1",
    "assay-system": "alkaline phosphatase, intestinal [Bos taurus]",
    "observed-property": "inhibition",
    "numeric-readout": 0.2
  },
  {
    "compound": "COc1ccc(CCNC(=O)CN(c2ccccc2)S(C)(=O)=O)cc1",
    "assay-system": "alkaline phosphatase, intestinal [Bos taurus]",
    "observed-property": "inhibition",
    "numeric-readout": -4
  },
  {
    "compound": "COc1ccc(S(=O)(=O)NC(C)C)cc1C(=O)NC1CCCCC1",
    "assay-system": "alkaline phosphatase, intestinal [Bos taurus]",
    "observed-property": "inhibition",
    "numeric-readout": 7.7
  },
  {
    "compound": "CC(C)=C1C2CCC1C1C(=O)N(NC(=O)c3ccco3)C(=O)C21 (centres undefined)",
    "assay-system": "alkaline phosphatase, intestinal [Bos taurus]",
    "observed-property": "inhibition",
    "numeric-readout": 41.2
  },
  {
    "compound": "Cn1cc(-c2ccccc2)cc(C#N)c1=O",
    "assay-system": "alkaline phosphatase, intestinal [Bos taurus]",
    "observed-property": "inhibition",
    "numeric-readout": -3.4
  },
  {
    "compound": "Cc1cc(F)ccc1S(=O)(=O)N1CCCOC1CNC(=O)C(=O)NCCC1=CCCCC1 (centres undefined)",
    "assay-system": "alkaline phosphatase, intestinal [Bos taurus]",
    "observed-property": "inhibition",
    "numeric-readout": 6.4
  },
  {
    "compound": "CCOC12CC(C)(C)CC(C)(CC3=C1C(=O)CC(C)(C)C3)C2 (centres undefined)",
    "assay-system": "alkaline phosphatase, intestinal [Bos taurus]",
    "observed-property": "inhibition",
    "numeric-readout": -12.4
  },
  {
    "compound": "Cc1ccccc1C1CC(c2cccs2)=NN1S(C)(=O)=O (centres undefined)",
    "assay-system": "alkaline phosphatase, intestinal [Bos taurus]",
    "observed-property": "inhibition",
    "numeric-readout": 18.1
  }
]
